The reported numbers originate from patent US20240209100A1.

Parameter: HEK-Blue IL-18: EC50. Scope: all listed entries.
assay target: T1, IL-18 receptor (IL-18Rα/IL-18Rβ) overexpressed on HEK-Blue IL-18 cells (Homo sapiens (Human), UniProt Q13478 19-541; O95256 20-599)
T1 sequence 1: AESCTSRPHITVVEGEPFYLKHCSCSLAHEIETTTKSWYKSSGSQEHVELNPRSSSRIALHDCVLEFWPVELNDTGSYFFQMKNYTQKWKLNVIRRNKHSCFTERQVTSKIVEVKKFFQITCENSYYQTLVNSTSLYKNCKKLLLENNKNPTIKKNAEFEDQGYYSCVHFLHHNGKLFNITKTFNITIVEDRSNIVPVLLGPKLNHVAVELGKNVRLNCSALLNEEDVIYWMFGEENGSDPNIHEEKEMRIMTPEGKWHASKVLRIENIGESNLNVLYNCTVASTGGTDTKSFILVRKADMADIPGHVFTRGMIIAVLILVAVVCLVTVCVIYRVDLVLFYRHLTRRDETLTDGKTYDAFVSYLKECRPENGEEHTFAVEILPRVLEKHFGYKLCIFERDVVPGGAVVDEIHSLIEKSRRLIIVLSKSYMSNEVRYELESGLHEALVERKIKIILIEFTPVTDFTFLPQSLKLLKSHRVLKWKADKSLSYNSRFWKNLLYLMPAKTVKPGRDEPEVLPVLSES
T1 sequence 2: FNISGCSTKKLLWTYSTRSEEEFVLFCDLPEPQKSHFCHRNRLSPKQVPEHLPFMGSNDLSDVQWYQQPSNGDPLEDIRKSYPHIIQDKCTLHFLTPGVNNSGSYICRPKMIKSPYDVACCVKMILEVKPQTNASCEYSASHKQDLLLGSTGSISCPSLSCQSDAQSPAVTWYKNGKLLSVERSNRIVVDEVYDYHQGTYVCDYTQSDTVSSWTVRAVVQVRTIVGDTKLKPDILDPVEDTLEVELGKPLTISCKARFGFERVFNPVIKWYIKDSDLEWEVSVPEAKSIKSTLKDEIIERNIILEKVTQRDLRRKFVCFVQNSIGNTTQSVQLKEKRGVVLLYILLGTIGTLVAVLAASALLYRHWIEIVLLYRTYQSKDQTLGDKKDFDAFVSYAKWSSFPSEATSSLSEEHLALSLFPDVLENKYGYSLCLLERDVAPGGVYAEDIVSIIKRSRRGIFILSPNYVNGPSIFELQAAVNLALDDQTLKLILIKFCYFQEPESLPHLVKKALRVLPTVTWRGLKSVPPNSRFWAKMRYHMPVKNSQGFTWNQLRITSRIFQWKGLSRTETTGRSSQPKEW
procedure details: cell-based or functional assay
The reply should contain only the number, in pM.

Guide cases for HEK-Blue IL-18: EC50, answers given:
DGL077 (bispecific antibody, V domains shown) V domain 1: QVQLQESGGGLVQPGGSLRLSCAASGSIFSTKGLGWYRQAPGEQRELVAGISSAGWIFYTQSVKGRFTMSRDNAKNTVYLQMNSLKPEDTAVYYCNSAQSGVPLRSWGQGTQVTVAS V domain 2: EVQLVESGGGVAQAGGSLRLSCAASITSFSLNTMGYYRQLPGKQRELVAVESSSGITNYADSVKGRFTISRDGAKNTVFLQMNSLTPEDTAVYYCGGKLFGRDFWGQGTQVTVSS | 5.4
DGL060 (bispecific antibody, V domains shown) V domain 1: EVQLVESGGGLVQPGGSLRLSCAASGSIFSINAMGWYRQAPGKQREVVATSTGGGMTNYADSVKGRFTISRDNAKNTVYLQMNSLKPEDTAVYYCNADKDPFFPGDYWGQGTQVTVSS V domain 2: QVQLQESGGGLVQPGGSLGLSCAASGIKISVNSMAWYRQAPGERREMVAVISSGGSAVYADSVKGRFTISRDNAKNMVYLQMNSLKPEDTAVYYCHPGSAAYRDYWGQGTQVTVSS | 28
DGL062 (bispecific antibody, V domains shown) V domain 1: QVQLQESGGGLVQPGGSLRLSCAASGSIFSTKGLGWYRQAPGEQRELVAGISSAGWIFYTQSVKGRFTMSRDNAKNTVYLQMNSLKPEDTAVYYCNSAQSGVPLRSWGQGTQVTVAS V domain 2: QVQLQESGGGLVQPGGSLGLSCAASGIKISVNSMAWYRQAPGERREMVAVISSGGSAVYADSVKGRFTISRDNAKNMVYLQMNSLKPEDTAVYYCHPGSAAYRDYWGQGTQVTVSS | 3.4
DGL090 (bispecific antibody, V domains shown) V domain 1: EVQLVESGGGLVQPGGSLRLSCAASGFFLDDYVLGWFRQAPGKPREGVSCISSRGRYLNYAETVKGRFTISRSNAKNTVYLQMNNLEPEDTAVYYCAAVRRVSEVCKLAEDDFASWGQGTQVTVSS V domain 2: QVQLQESGGGLVQAGGSLKLSCQASGLTFKRNTMGWFRQAPGKEREFVAHFLWTGGETDYADAVKGRFTISRDNAKNTVYLQMNSLKPEDTAVYFCAANYAGYRIDGYQYWGQGTQVTVSS | 33

Query: Which HEK-Blue IL-18: EC50 reading was recorded for the binder DGL097 (bispecific antibody, V domains shown) V domain 1: QVQLVESGGGLVQAGGSLRLSCAASGRTFSSYDMGWFRQAPGKEREFVAALRWSGGSTSYADSVKGRFTISRDNAKNTVYLHMNSLKPEDTAVYYCAATLETDSGTYWADYWGQGTQVTVSS V domain 2: QVQLVESGGGLVQAGGSLRLSCVASGTFFQIHVMGWYRQAPGKQRELVAFIINNGGTRYADSVKGRFTISRDYAKNTVYLQMNSLKPEDTAVYYCNTEGTYRGRYSTDNWGQGTQVTVSS ?
Response: 14
